Cited source for all entries: PubChem BioAssay (NCI)

- System: SK-OV-3 ovarian
- assay_name: NCI tumour cell line growth inhibition, 48 h
measure_name: GI50

GET /value?item= `O=S(=O)(Nc1ccc(F)c(Cl)c1)c1ccc(-c2cnc(C3CC3)o2)cc1` &field=GI50 returns 0.728 µM

GET /value?item= `Cc1c(C(N)=O)sc2c1c(=O)n(Cc1ccccc1)c1nnc(-c3ccc(Br)cc3)n21` &field=GI50 returns 2.97 µM

GET /value?item= O=C(c1ccccc1)n1c(-c2ccccc2)cs/c1=N\S(=O)(=O)c1ccc(N2N=C3c4ccccc4CC3C2c2cccs2)cc1 (stereo not given) &field=GI50 returns > 100 µM

GET /value?item= `COc1cc(-n2ccnc2)cc(OC)c1OC` &field=GI50 returns 80.2 µM

GET /value?item= `Nc1nc(=O)n([C@@H]2CS[C@H](CO)O2)cc1F` &field=GI50 returns > 100 µM
